The measured values listed here are drawn from patent US20130129746A1.

# system_under_test: T1, Human Serum Albumin (human, UniProt P02768 25-609)
# T1 construct: mature; purified protein on CM5 chips for BIAcore; also called HSA; human SA
# experiment_description: BIAcore SPR;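 further: purified dAbs run at 1 µM, 500 nM and 50 nM over human, cynomolgus, mouse and rat serum albumin in BIAcore binding measurements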
quantity_measured: kon (M⁻¹ s⁻¹)
Reply with just the number (in M⁻¹ s⁻¹).

[[record]]
binder = "DOM7h-14-18 (other, Vk dAb (AlbudAb)) VL: DIQMTQSPSSLSASVGDRVTITCRASQWIGSQLSWYQQKPGKAPKLLIMWRSSLQSGVPSRFSGSGSGTDFTLTISSLQPEDFATYYCAQGLMKPMTFGQGTKVEIKR"
value = 189000


Challenge: // returns reported kon for input DOM7h-11-15 (other) VL: DIQMTQSPSSLSASVGDRVTITCRASRPIGTMLSWYQQKPGKAPKLLILAFSRLQSGVPSRFSGSGSGTDFTLTISSLQPEDFATYYCAQAGTHPTTFGQGTKVEIKR
Response given: 2e+06
